Value source: PubChem BioAssay

composite z-score overview
Target: Follistatin (Homo sapiens) (UniProt P19883)
Sequence (P19883 whole entry, looked up): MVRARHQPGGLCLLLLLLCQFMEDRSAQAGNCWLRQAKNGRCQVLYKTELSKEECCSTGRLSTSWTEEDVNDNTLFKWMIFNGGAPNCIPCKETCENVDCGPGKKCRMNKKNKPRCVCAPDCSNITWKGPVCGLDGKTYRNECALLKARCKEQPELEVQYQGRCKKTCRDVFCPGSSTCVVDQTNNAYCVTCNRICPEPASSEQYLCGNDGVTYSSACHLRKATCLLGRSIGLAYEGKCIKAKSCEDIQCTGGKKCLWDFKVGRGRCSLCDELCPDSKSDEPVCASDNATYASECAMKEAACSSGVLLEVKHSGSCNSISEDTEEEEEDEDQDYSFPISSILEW
Assay: follistatin binders on small-molecule microarrays, primary screen, biochemical, small-molecule microarray, 635/667 nm fluorescence (AID 1132)
Settings: FST binding, 635 nm fluorescence, higher = more signal
A bare number is all that is needed in reply.

# count of solved cases: 2
> print(dat)
                           molecular.string      property.name  recorded.number
1  NC(=O)[C@@H]1[C@H]2C(=O)O[C@H](c3ccccc3)[C@H](c3ccccc3)N2[C@H](c2ccc(O)cc2)[C@@]12C(=O)Nc1ccccc12  composite z-score             -0.5
2  CO[C@H]1O[C@H](CO)[C@@H](OC(=O)Nc2ccc(C(F)(F)F)cc2)[C@H](OC(=O)Nc2ccc3c(c2)OCO3)[C@@H]1OC(=O)Nc1ccc2c(c1)OCO2  composite z-score             1.17

Here's the next entry for you.
# input State its composite z-score for this molecule: `CN(C)C(=O)[C@]1(Cc2ccccc2N=[N+]=[N-])N=C(c2ccc(OCCCO)cc2)O[C@@H]1c1ccccc1N=[N+]=[N-]`
# output 1.27

====

Test: Plasmodium falciparum growth inhibition, primary screen, strain 3D7, DAPI fluorescence, 100 nL (AID 1184);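 further: parasites grown inside human red blood cells in medium with human serum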
Details: P. falciparum 3D7 growth, 3 d, higher = more signal
Class (by z-score) -- low range: < -1; mid range: ≥ -1 and < -0.06; high range: ≥ -0.06

molecule	category
CCCC[C@H]1OB(O)C[C@H]2C1=C(COC)Cn1c(=O)n(-c3ccccc3)c(=O)n12	low range
O=C1C[C@@](C(=O)NCCN2CCOCC2)(c2ccc([N+](=O)[O-])cc2)[C@@H](c2ccc(CO)cc2I)N1CC12CC3CC(CC(C3)C1)C2	low range
COC(=O)[C@H](Cc1ccccc1)N1CC2=C[C@@H](C3CC3)n3c(=O)n(C)c(=O)n3[C@H]2[C@@H]1[C@@H](O)Cc1ccccc1	mid range
CC1CC/C=C\[C@H]2OC34C=CCN(Cc5ccccc5)C(=O)[C@H]3N(CCCO)C(=O)[C@@H]4C2C(=O)O1 (stereo not given in full)	high range
COc1ccccc1CN1C(=O)c2ccccc2[C@@H](C(=O)NC2CC2)[C@@H]1c1ccc(CO)cc1	low range
C=C(C)[C@@H]1CC=C(C(O)C2C=CC3C(=O)N(C)C(=O)C3N2Nc2ccccc2)CC1 (stereo not given in full)	high range
COCCOC(=O)N1C(=O)[C@@]2(c3cc(C#CC4(O)CCCCCC4)ccc31)[C@H](c1ccc(OCCO)cc1)N1[C@H](c3ccccc3)[C@H](c3ccccc3)OC(=O)[C@H]1[C@@H]2C(=O)N1CCN(c2ncccn2)CC1	low range
COc1cc2c(cc1OC)CN(C(=O)[C@@H]1[C@H]3C(=O)O[C@H](c4ccccc4)[C@H](c4ccccc4)N3[C@H](c3ccc(O)cc3)[C@@]13C(=O)Nc1ccccc13)CC2	low range
CCCC[C@@H]1C[C@H]1[C@@H](NC(=O)c1cccs1)c1ccc(-c2ccccc2)cc1	high range
C=CCN1C(=O)[C@@]2(Cc3ccccc31)N=C(c1ccc(OCCCO)cc1)O[C@H]2c1ccccc1	low range

# input Kindly identify the class of `C[N+](C)(C)CCCCNC(=O)[C@H]1C[C@H]2C(=O)N3CCC[C@H]3C(=O)N2[C@H]1c1cccc(OCCO)c1` .
# output high range

# input Kindly identify the class of O=C1C2C=CC(C(O)CCc3ccccc3)N(Nc3ccccc3F)C2C(=O)N1c1ccccc1 (stereo not given) .
# output mid range

# input Kindly identify the class of O=C1NC(=O)C2C1C=CC(C(O)c1cc(C(F)(F)F)cc(C(F)(F)F)c1)N2Nc1ccccn1 (stereo not given) .
# output mid range

# input Kindly identify the class of `CCOC(=O)[C@H]1C/C=C/C[C@H](C(=O)OCC)C(=O)O[C@H]2[C@@H](OC)O[C@H](CO)[C@@H](OC(=O)c3c(OC)cccc3OC)[C@@H]2OC1=O` .
# output high range

# input Kindly identify the class of `C=CC(=C)[C@H]1Oc2ccccc2S(=O)(=O)N2CCC[C@@H]12` .
# output mid range

====

Test: osmotic lysis modulators in infected erythrocytes, primary screen, PSAC antagonist project, cell-based, P. falciparum Indochina, OD700, 3 h (AID 1156)
Settings: higher = more signal, called active from +8 up or from −8 down
The source made the active and inactive calls.
property.name: z-score

# count of solved cases: 6
molecule	z-score
CCOC(=O)C1=C[C@@H](C(C)(C)C)N(S(=O)(=O)c2ccc(C)cc2)[C@H]1c1ccc(F)cc1	-0.862 (inactive)
C=CC[C@]1(C(=O)NCc2ccccc2)N=C(c2ccc(OCCCO)cc2)O[C@H]1c1ccccc1N=[N+]=[N-]	3.46 (inactive)
O=C1C2C=CC(C(O)c3cc(C(F)(F)F)cc(C(F)(F)F)c3)N(n3cnnc3)C2C(=O)N1Cc1ccccc1 (centres undefined)	1.69 (inactive)
C=C(/C(=C/C[C@H](OC(C)=O)c1ccccc1OCCO)c1cnc2ccccc2c1)C(C)C	1.29 (inactive)
COCCOC(=O)N1C(=O)[C@@]2(c3cc(C#Cc4ccc(OC)cc4)ccc31)[C@H](c1ccccc1OCCO)N1[C@H](c3ccccc3)[C@H](c3ccccc3)OC(=O)[C@H]1[C@@H]2C(=O)NC[C@H](O)c1ccccc1	-0.76 (inactive)
COc1cc(NN2C(C(O)c3ccco3)C=CC3C(=O)N(c4ccccc4)C(=O)C32)cc(OC)c1OC (centres undefined)	1.06 (inactive)

# input State its z-score for this molecule: `O=C(N1CCCCC1)[C@]1(Cc2ccccc2)N=C(c2ccc(OCCCO)cc2)O[C@@H]1c1ccccc1`
# output 0.696 (inactive)

# input State its z-score for this molecule: CC(C)C[C@@H]1NC(=O)[C@H](C(C)C)NC(=O)[C@@]23C(=O)N[C@@H](Cc4ccccc4)C2[C@H](C)[C@@]2(C)O[C@H]2C3/C=C/CC/C=C/CNC1=O (some centres undefined)
# output 0.841 (inactive)

# input State its z-score for this molecule: `COCCOC(=O)N1C(=O)[C@@]2(c3ccccc31)[C@H](C(=O)N1CCc3cc(OC)c(OC)cc3C1)[C@H]1C(=O)O[C@H](c3ccccc3)[C@H](c3ccccc3)N1[C@@H]2c1ccc(OCCO)cc1`
# output 0.757 (inactive)

====

composite z-score overview
System: Neuregulin-1 EGF-like domain
Experiment: binders of neuregulin-1 EGF-like domain, primary screen, biochemical, small-molecule microarray, 635 nm fluorescence (AID 1081);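 further: binding of the protein to compounds printed on small-molecule microarray slides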
Details: small-molecule microarray binding, higher = more signal
A bare number is all that is needed in reply.

# input State its composite z-score for this compound: `CO[C@H]1O[C@H](CO)[C@@H](OC(=O)Nc2ccc(Oc3ccccc3)cc2)[C@H](OC(=O)Nc2ccc3c(c2)OCO3)[C@H]1OC(=O)Nc1ccc2c(c1)OCO2`
# output 1.15

# input State its composite z-score for this compound: CCC(CC)C(O)C1C=CC2C(=O)NC(=O)C2N1Nc1ccc(Cl)cc1Cl (stereo not drawn)
# output 1.08

# input State its composite z-score for this compound: CN1C(=O)C2C=CC(C(O)c3ccco3)N(Nc3ccccc3)C2C1=O (stereo not drawn)
# output 1.28

====

composite z-score overview
Test system: Human papillomavirus type 1a protein E7 (residues 44-93)
Assay: HPV1a E7 fragment binders on microarrays, primary screen, biochemical, small-molecule microarray, residues 44-93, 635 nm fluorescence (AID 1108);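 further: E7 fragment applied at 1 µg/mL in TBST for 1 h at 4 C; score combines spot fluorescence with its signal to noise ratio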
Conditions: small-molecule microarray binding, fluorescence 635 nm; higher = more signal
A bare number is all that is needed in reply.

> print(dat)
                           molecular.string  recorded.number
1  C=CC(=C)[C@H]1Oc2ccccc2S(=O)(=O)N2CCC[C@@H]12            -1.24
2  CCC[C@@H]1C[C@@]1(CCC)[C@@H](NC(=O)c1ccccc1)c1cccc(Cl)c1             1.37
3  C=C(CC1([C@@H](NP(=O)(c2ccccc2)c2ccccc2)[C@H]2C[C@@H]2CCCC)CC1)c1ccccc1             1.23

# input State its composite z-score for this compound: `COC(=O)[C@@]1(Cc2ccc(OC)cc2)[C@H]2c3cc(C(=O)N(C)C)n(CCc4ccccn4)c3C[C@H]2CN1C(=O)c1ccccc1`
# output 0.263

====

Target: Follistatin (Homo sapiens) (UniProt P19883)
Experiment: follistatin binders on small-molecule microarrays, primary screen, biochemical, small-molecule microarray, 635/667 nm fluorescence (AID 1132)
Conditions: FST binding, 635 nm fluorescence, higher = more signal
composite z-score overview
A bare number is all that is needed in reply.

# count of solved cases: 3
molecular.string	composite z-score
C=CCOC(=O)[C@H]1[C@@H]2C(=O)O[C@@H](c3ccccc3)[C@@H](c3ccccc3)N2[C@@H](c2ccc(OCCOC(=O)[C@H]3C[C@H]4C(=O)N[C@@H](CCCCNC(C)=O)C(=O)N4[C@H]3c3cccc(OCCO)c3)cc2)[C@]12C(=O)Nc1ccccc12	1.31
COC(=O)[C@@]1(Cc2ccc(OC)cc2)[C@H]2c3cc(C(=O)N(C)C)n(C)c3C[C@H]2CN1C(=O)c1ccccc1	1.22
COc1ccc([Si](C)(C)[C@H]2[C@H](CC(=O)N3Cc4ccccc4C[C@H]3CO)O[C@@]3(C(=O)N(Cc4cccc(N5CCC5=O)c4)c4ccccc43)[C@@H]2C)cc1	1.33

# input State its composite z-score for this compound: `Cc1ccc(S[C@]2(C(=O)O)CC(=O)N(C(C)C)[C@@H]2c2ccc(CO)cc2I)cc1`
# output 1.12
